# Test system: LOX IMVI melanoma
# Assay Comment: NCI tumour cell line growth inhibition, 48 h
Assay Readout: GI50

Reported GI50 for C(=N/Nc1ncnc2nc[nH]c12)/c1ccccn1 : what is it?
525 nM

For O=C(/C=C/C=C/c1ccccc1)c1ccc(Nc2nc(Nc3ccccc3)nc(Nc3ccccc3)n2)cc1 then?
> 100000 nM

What do you have for O=C(CCCCC(=O)N/N=C\c1ccccc1Cl)N/N=C\c1ccccc1Cl ?
> 100000 nM

Continue with CCOCCc1c(O)nc(SC)[nH]c1=O
> 100000 nM

Try the molecule C=C1C(=O)O[C@H]2[C@H]1CC/C(C=Nc1ccc(C(F)(F)F)cc1N)=C\CC[C@@]1(C)O[C@@H]21
4120 nM

Subsequent entry: CN(C)c1ccc(/C=C(\C#N)c2cc3ccccc3n2C)cc1
425 nM

Can you handle CCOC(=O)c1c[nH]c2c(OCc3ccccc3)c3ccccc3c(O)c2c1=O next?
6830 nM

What would you report for Nc1ncnc2c1c(-c1cccc(OCc3ccccc3)c1)cn2C1CC(CN2CCCC2)C1 (stereo unspecified) ?
1520 nM

Now try O=C(c1ccccc1)c1ccc(Cl)c([N+](=O)[O-])c1 .
2430 nM

Here is the next molecule: CCCCCCCCCCCC1=NC(C)(C)CN1CCO
1970 nM

Do the same for C=C1C(=O)O[C@H]2[C@H]1CC/C(COC(=O)/C=C\C(=O)NCc1ccc(Cn3c(=O)sn(-c4ccc(OC)cc4)c3=O)cc1)=C\CC[C@@]1(C)O[C@@H]21 please
360 nM

Ok, now Cc1ccc(Cl)cc1Nc1nc(C(F)(F)F)ccc1C(=O)N/N=C/c1c(Cl)cccc1Cl
648 nM

Also CC1(C)CC(=O)C2=C(C1)NC(SSC1=C(C#N)C(c3ccc(Br)cc3)C3=C(CC(C)(C)CC3=O)N1)=C(C#N)C2c1ccc(Br)cc1 (stereo unspecified) , if possible.
22.9 µg/mL

What do we get for C[As](C)Sc1ccnc(S[As](C)C)n1 ?
2760 nM

Check CCc1ccc(CCC(=O)Nc2ncc(Cc3cc(Cl)ccc3Cl)s2)o1 too.
2040 nM

Repeat for the following molecule: COc1ccc2nc3cccc([N+](=O)[O-])c3c(NCCN(CCO)CCO)c2c1
37.9 nM
